These entries and their values trace back to ChEMBL document CHEMBL1201862.

Tested on: T47D
experiment: NCI tumour cell line growth inhibition, 48 h
The source made the active and inactive calls. Rule as the data show it: active = GI50 up to about 1.1 µM and inactive = higher.
Please reply with one of these outcomes: YES for active, NO for inactive

In [3]: df
Out[3]:
                                   compound  label_class
0    CCOC(=O)c1c[nH]c2c(Sc3ccccc3)nccc2c1=O           NO
1  COc1ccc2nc3cc(Cl)ccc3c(NCCCN(C)CCCNc3ccc4ncn5c6ccccc6c(=O)c3c45)c2c1           NO
2                   CCCCCCc1ccc(C(=O)NO)cc1           NO
3  CC(C)(C)OC(=O)NC(CSCc1ccc(C(=O)c2ccccc2)cc1)C(=O)N1CCN(CCCCN2c3ccccc3Sc3cc(N=[N+]=[N-])ccc32)CC1 (stereo unspecified)           NO
4  COc1ccc(C2c3cc4c(cc3C(O)C3CCC(=O)N23)OCO4)cc1 (stereo unspecified)           NO

Q) Please state the recorded outcome for this compound: `OC(c1ccccc1)(c1ccccc1)c1nccc2ccccc12`
A) NO

Q) Please state the recorded outcome for this compound: `CN(c1c(Cl)cccc1Cl)S(=O)(=O)c1ccccc1[N+](=O)[O-]`
A) NO

Q) Please state the recorded outcome for this compound: `O=C(/C=C/c1ccc(O)c(O)c1)O[C@H]1CCCC[C@@H]1OC(=O)/C=C/c1ccc(O)c(O)c1`
A) NO

Q) Please state the recorded outcome for this compound: `[N-]=[N+]=CC(=O)CCC(=O)N(c1ccccc1)c1ccccc1`
A) NO

Q) Please state the recorded outcome for this compound: CCCCCCCCCCCCCCCCOP(=O)(O)OP(=O)(O)OCC1OC(n2cnc3c(N)ncnc32)C(O)C1O (stereo unspecified)
A) NO

Q) Please state the recorded outcome for this compound: Cc1nn(C(=O)c2ccc(Cl)cc2)c2c1C(c1cccc([N+](=O)[O-])c1)SC(=N)N2 (stereo unspecified)
A) NO

Q) Please state the recorded outcome for this compound: COC(=O)[C@]1(c2cc3ccccc3[nH]2)CC2CN(C(=O)OCc3ccccc3)C1C=C2OC (stereo partly specified)
A) NO

Q) Please state the recorded outcome for this compound: `CCOC(=O)c1cccc(/N=N/Nc2cccc(C(=O)OCC)c2)c1`
A) NO

Q) Please state the recorded outcome for this compound: `CC1(C)[C@H]2CC[C@]1(C)[C@H](OC(=O)NNC(=O)O[C@@H]1C[C@@H]3CC[C@@]1(C)C3(C)C)C2`
A) NO

Q) Please state the recorded outcome for this compound: `COC(=O)c1ccccc1C#CCCCOS(C)(=O)=O`
A) NO

Q) Please state the recorded outcome for this compound: `CCOC(=O)c1cc(Br)c(-c2cc(C)co2)[nH]1`
A) NO

Q) Please state the recorded outcome for this compound: `CN(C)Cc1cc(/C=C/C(=O)c2ccc(Br)cc2)cc(CN(C)C)c1O`
A) NO

Q) Please state the recorded outcome for this compound: `C/C(=N\Nc1nc2ccccc2n1C)c1ccncn1`
A) YES

Q) Please state the recorded outcome for this compound: `N#Cc1sc2nc3ccccc3n2c1N`
A) NO

Q) Please state the recorded outcome for this compound: `Oc1nnnc2c1sc1ncccc12`
A) NO

Q) Please state the recorded outcome for this compound: CSc1nc(=O)c(C#N)c(-c2ccccc2)n1C1OC(COC(C)=O)C(OC(C)=O)C(OC(C)=O)C1OC(C)=O (stereo unspecified)
A) NO
